This listing pairs compounds with measured Plant response rating, Oat, Wild.
system: Oat, Wild (wild oat, Avena fatua); test: Test A1 postemergence, Oat, Wild; type: in vivo; settings: Postemergence, 125 g ai/ha; 0 to 100 scale

## Task Param item = Cc1cc(F)c(C2=NOC3CCCC23)cc1NS(=O)(=O)C(F)(F)F (stereo not drawn) ; retrieve measured Plant response rating, Oat, Wild.
## Result 10

## Task Need Plant response rating, Oat, Wild of Cc1cc(C)c(N(COC(=O)OC(C)(C)C)S(=O)(=O)C(F)(F)F)cc1C1=NOC2CCCC12 (stereo not drawn) , thanks.
## Result 10

## Task Query (compound): CCOC(=O)N(c1cc(C(=O)N2C[C@@H](C)O[C@H](C)C2)c(C)c(C)c1C)S(=O)(=O)C(F)(F)F (relative stereo) ; field requested: Plant response rating, Oat, Wild
## Result 10
